# target-entity: BRD4 BD1 (Homo sapiens)
# measurement-protocol: AlphaScreen binding assay, BRD4 Bromodomain 1
pIC50: −log10 of the molar value.
pIC50 listing for selected compounds.

Use these answered entries as a reference point.
# sample-smiles, pIC50
measured = [
    ("CC(=O)N1c2ccccc2N(Cc2ccc(N3CCOCC3)nc2)C[C@@H]1C", "< 5.00"),
    ("CC(=O)N1c2ccc(-c3cnn(C4CCNCC4)c3)cc2N(C(=O)OC2CCCCC2)C[C@@H]1C", "6.00 to 7.00"),
    ("CC(=O)N1c2ccc(-c3cnc(C)s3)cc2N(C(=O)c2ccco2)C[C@@H]1C", "5.00 to 6.00"),
]

Ask: Requested read-out: pIC50. Entry: COC(=O)N1c2ccc(-c3cnn(C(C)(C)CO)c3)cc2N(C(=O)Oc2ccc(F)cc2)C[C@@H]1C
Reply: 6.00 to 7.00

Ask: Requested read-out: pIC50. Entry: CC(=O)N1c2ccc(-c3cnn(CC(C)(C)O)c3)cc2N(C(=O)C2CC2)C[C@@H]1C
Reply: 5.00 to 6.00

Ask: Requested read-out: pIC50. Entry: CC(=O)N1c2ccc(-c3cnn(C4CC4)c3)cc2N(C(=O)OC2CCOCC2)C[C@@H]1C
Reply: > 7.00

Ask: Requested read-out: pIC50. Entry: COC(=O)N1c2ccc(-c3cnn(C4CC4)c3)cc2N(C(=O)OCC2CC2)C[C@@H]1C
Reply: 6.00 to 7.00

Ask: Requested read-out: pIC50. Entry: CC(=O)N1c2ccc(-c3cnn(CCC#N)c3)cc2N(C(=O)C2CC2)C[C@@H]1C
Reply: 6.00 to 7.00

---

# target-entity: BRD4 BD2 (Homo sapiens, UniProt O60885)
# measurement-protocol: AlphaScreen binding assay, BRD4 Bromodomain 2
pIC50: −log10 of the molar value.
outcome-measure: pIC50

Use these answered entries as a reference point.
# sample-smiles, reported-result
records = [
    ("CC(=O)N1c2ccccc2N(Cc2ccc(Cl)c(F)c2)C[C@@H]1C", "< 6.30"),
    ("COC(=O)N1c2ccc(-c3ccc(C(=O)N4CCNCC4)cc3)cc2N(C(=O)OC(C)C)C[C@@H]1C", "6.30 to 7.30"),
    ("COC(=O)N1c2ccc(-c3cnn(CCC(N)=O)c3)cc2N(C(=O)OC(C)C)C[C@@H]1C", "6.30 to 7.30"),
    ("CC(=O)N1c2ccc(-c3ccc(C(=O)N(C)c4ccccn4)cc3)cc2N(C(=O)OC(C)C)C[C@@H]1C", "6.30 to 7.30"),
    ("CC(C)OC(=O)N1C[C@H](C)N(C(=O)C2CC2)c2ccc(-c3cnn(CC4CC4)c3)cc21", "6.30 to 7.30"),
]

Ask: Requested read-out: pIC50. Entry: CC(=O)N1c2ccc(-c3ccc(-c4ncco4)cc3)cc2N(C(=O)c2ccco2)C[C@@H]1C
Reply: > 7.30

Ask: Requested read-out: pIC50. Entry: CNS(=O)(=O)c1cccc(-c2ccc3c(c2)N(C(=O)OC2CCCCC2)C[C@H](C)N3C(C)=O)c1
Reply: 6.30 to 7.30

---

# target-entity: BRD4 BD2 (Homo sapiens, UniProt O60885)
# measurement-protocol: AlphaScreen binding assay, BRD4 Bromodomain 2
pIC50: −log10 of the molar value.
outcome-measure: pIC50

# compound, pIC50
data = [
    ("CC(C)OC(=O)N1C[C@H](C)N(C(=O)C2CC2)c2ccc(-c3cnn(CC4(C)COC4)c3)cc21", "6.30 to 7.30"),
    ("CC(=O)N1c2ccc(-c3cccc4[nH]ccc34)cc2N(C(=O)c2ccco2)CC1C (stereo not drawn)", "6.30 to 7.30"),
    ("COc1cc2c(cc1-c1ccc(S(C)(=O)=O)cc1)N(C(=O)OC(C)C)C[C@H](C)N2C(C)=O", "< 6.30"),
]

Ask: Requested read-out: pIC50. Entry: CC(=O)N1c2ccc(-c3cnn(C4CC4)c3)cc2N(C(=O)Oc2ccccc2)C[C@@H]1C
Reply: > 7.30

Ask: Requested read-out: pIC50. Entry: COC(=O)Nc1ccc2c(c1)N(C(C)=O)[C@@H](C)CN2C(=O)OC(C)C
Reply: < 6.30

Ask: Requested read-out: pIC50. Entry: CC(=O)N1c2ccccc2N(Cc2ccc(N(C)C)cc2)C[C@@H]1C
Reply: < 6.30

Ask: Requested read-out: pIC50. Entry: COC(=O)N1c2ccc(-c3cnn(CC#N)c3)cc2N(C(=O)OC(C)C)C[C@@H]1C
Reply: < 6.30

Ask: Requested read-out: pIC50. Entry: CC(=O)N1c2ccc(-c3cccc(S(N)(=O)=O)c3)cc2N(C(=O)C2CC2)C[C@@H]1C
Reply: > 7.30

Ask: Requested read-out: pIC50. Entry: CC(=O)N1c2ccc(-c3cccc(S(N)(=O)=O)c3)cc2N(C(=O)C2CCC2)C[C@@H]1C
Reply: > 7.30

Ask: Requested read-out: pIC50. Entry: CC(=O)N1c2ccc(-c3ccc(S(C)(=O)=O)cc3)cc2N(C(=O)NC2CCCC2)C[C@@H]1C
Reply: 6.30 to 7.30

Ask: Requested read-out: pIC50. Entry: CC(=O)N1c2ccc(-c3ccc(S(C)(=O)=O)cc3)cc2N(C(=O)c2cc(C)[nH]n2)CC1C (stereo not drawn)
Reply: 6.30 to 7.30

Ask: Requested read-out: pIC50. Entry: CC(=O)N1c2cc(N)c(-c3cnn(C4CC4)c3)cc2N(C(=O)OC(C)C)C[C@@H]1C
Reply: > 7.30

Ask: Requested read-out: pIC50. Entry: CC(=O)N1c2ccc(-c3ccc(S(C)(=O)=O)cc3)cc2N(C(=O)OCC(C)C)C[C@@H]1C
Reply: 6.30 to 7.30

Ask: Requested read-out: pIC50. Entry: CC(=O)N1c2ccc(-c3cccc(-c4ncccn4)c3)cc2N(C(=O)c2ccco2)C[C@@H]1C
Reply: 6.30 to 7.30

Ask: Requested read-out: pIC50. Entry: CC(=O)N1c2ccc(-c3ccc(S(C)(=O)=O)c(F)c3)cc2N(C(=O)OC2CCOCC2)C[C@@H]1C
Reply: 6.30 to 7.30

---

# target-entity: BRD4 BD1 (Homo sapiens, UniProt O60885)
# measurement-protocol: AlphaScreen binding assay, BRD4 Bromodomain 1
outcome-measure: IC50

Use these answered entries as a reference point.
# molecule, IC50
records = [
    ("CC(=O)N1c2ccc(-c3cnn(CCC(F)(F)F)c3)cc2N(C(=O)OC(C)C)C[C@@H]1C [Example I-142]", "1000 to 10000 nM"),
    ("CC(=O)N1c2ccc(-c3cnn(C4CCCS(=O)(=O)C4)c3)cc2N(C(=O)OC(C)C)C[C@@H]1C (some centres unmarked) [Example I-1311]", "100 to 1000 nM"),
    ("CC(=O)N1c2ccc(-c3ccc(C(=O)N(C)CCN4CCCC4)cc3)cc2N(C(=O)OC(C)C)C[C@@H]1C [Example I-551]", "100 to 1000 nM"),
]

Ask: IC50 of CC(=O)N1c2ccc(-c3cnn(C4CCNC(=O)C4)c3)cc2N(C(=O)OC2CCOCC2)C[C@@H]1C (some centres unmarked) [Example I-163] on BRD4 BD1 (Homo sapiens, UniProt O60885)?
Reply: 100 to 1000 nM

Ask: IC50 of CNC(=O)c1cccc(-c2ccc3c(c2)N(C(=O)c2ccco2)CCN3C(C)=O)c1 [Example I-868] on BRD4 BD1 (Homo sapiens, UniProt O60885)?
Reply: > 10000 nM

Ask: IC50 of CCOC(=O)N1C[C@H](C)N(C(C)=O)c2ccc(-c3ccc(S(=O)(=O)CC)cc3)cc21 [Example I-1029] on BRD4 BD1 (Homo sapiens, UniProt O60885)?
Reply: 1000 to 10000 nM

Ask: IC50 of COc1ncccc1OC(=O)N1C[C@H](C)N(C(C)=O)c2ccc(-c3cnn(C4CC4)c3)cc21 [Example I-521] on BRD4 BD1 (Homo sapiens, UniProt O60885)?
Reply: < 100 nM

Ask: IC50 of CC(=O)N1c2ccc(-c3cnn(C4CC4)c3)cc2N(C(=O)Oc2ccc3c(c2)ncn3C)C[C@@H]1C [Example I-1205] on BRD4 BD1 (Homo sapiens, UniProt O60885)?
Reply: 100 to 1000 nM

Ask: IC50 of CCOC(=O)N1C[C@H](C)N(C(C)=O)c2ccc(-c3cccc(S(=O)(=O)C4CC4)c3)cc21 [Example I-1088] on BRD4 BD1 (Homo sapiens, UniProt O60885)?
Reply: 1000 to 10000 nM

Ask: IC50 of CC(=O)N1c2ccccc2N(Cc2ccc3c(c2)OCO3)C[C@@H]1C [Example I-920] on BRD4 BD1 (Homo sapiens, UniProt O60885)?
Reply: > 10000 nM

Ask: IC50 of C#CCOC(=O)N1C[C@H](C)N(C(C)=O)c2ccc(-c3ccc(S(C)(=O)=O)cc3)cc21 [Example I-240] on BRD4 BD1 (Homo sapiens, UniProt O60885)?
Reply: 1000 to 10000 nM

Ask: IC50 of COC(=O)N1c2ccc(-c3cnn(CCC#N)c3)cc2N(C(=O)Oc2cccnc2)C[C@@H]1C [Example I-1289] on BRD4 BD1 (Homo sapiens, UniProt O60885)?
Reply: 1000 to 10000 nM

Ask: IC50 of CC(=O)N1c2ccc(-c3ccc(S(C)(=O)=O)cc3)cc2N(C(=O)Oc2ccccc2)C[C@@H]1C [Example I-223] on BRD4 BD1 (Homo sapiens, UniProt O60885)?
Reply: 100 to 1000 nM

Ask: IC50 of COc1ccc(-c2ccc3c(c2)N(C(=O)OC(C)C)C[C@H](C)N3C(C)=O)cc1N1CCCS1(=O)=O [Example I-1170] on BRD4 BD1 (Homo sapiens, UniProt O60885)?
Reply: 100 to 1000 nM

Ask: IC50 of CC(=O)N1c2ccccc2N(S(=O)(=O)c2ccc(C)cc2C)C[C@@H]1C [Example I-949] on BRD4 BD1 (Homo sapiens, UniProt O60885)?
Reply: > 10000 nM

Ask: IC50 of COC(=O)N1c2ccc(-c3cnn(Cc4c(C)noc4C)c3)cc2N(C(=O)OC(C)C)C[C@@H]1C [Example I-634] on BRD4 BD1 (Homo sapiens, UniProt O60885)?
Reply: 100 to 1000 nM

Ask: IC50 of CC(=O)N1c2ccc(-c3cnn(C4CCOCC4)c3)cc2N(C(=O)OC2CCC(F)(F)CC2)C[C@@H]1C [Example I-2] on BRD4 BD1 (Homo sapiens, UniProt O60885)?
Reply: 100 to 1000 nM

Ask: IC50 of CC(=O)N1c2ccc(-c3cnn(C4CCOCC4)c3)cc2N(C(=O)OC2CCOCC2)C[C@@H]1C [Example I-38] on BRD4 BD1 (Homo sapiens, UniProt O60885)?
Reply: 100 to 1000 nM

Ask: IC50 of CC(=O)N1c2ccc(-c3ccc(N(C)S(C)(=O)=O)cc3)cc2N(C(=O)c2ccco2)C[C@@H]1C [Example I-492] on BRD4 BD1 (Homo sapiens, UniProt O60885)?
Reply: 100 to 1000 nM

Ask: IC50 of CC(=O)N1c2ccc(-c3ccc(NS(C)(=O)=O)c(C)c3)cc2N(C(=O)C2CCC2)C[C@@H]1C [Example I-1172] on BRD4 BD1 (Homo sapiens, UniProt O60885)?
Reply: 100 to 1000 nM

Ask: IC50 of COC(=O)N1c2ccc(-c3cnn(C4CC4)c3)cc2N(C(=O)OC2COC2)C[C@@H]1C [Example I-999] on BRD4 BD1 (Homo sapiens, UniProt O60885)?
Reply: 1000 to 10000 nM
